# Test system: influenza viruses (A/PR8/34/H1N1)
# measurement protocol: microbe, parasite or virus in culture
# reported conditions: H1N1|PR8, MDCK, read-out: EC50 Antiviral effect (50% effective concentration), viral infection-preventing effect
recorded endpoint: pEC50
Here pEC50 is given on a logarithmic scale as minus log10 of the concentration in mol/L.

> print(dat)
                                   molecule                                tgt  recorded.value
1  CCOC(=O)C1=C[C@@H](OC(CC)CC)[C@H](NC(C)=O)[C@@H](N)C1 [oseltamivir phosphate]  influenza viruses (A/PR8/34/H1N1)            4.23

Please find the next molecule below.
Query: # value lookup — system influenza viruses (A/PR8/34/H1N1), readout pEC50, item CC(=O)N[C@H]1[C@H]([C@H](O)[C@H](O)CO)OC(C(=O)O)=C[C@@H]1N=C(N)N [zanamivir]
Result: 4.42

====

# System: influenza viruses (A/PR8/34/H1N1)
# reported conditions: read-out: EC50 Antiviral effect (50% effective concentration), viral infection-preventing effect
recorded endpoint: EC50 (µM)
Reply numerically in µM, unit not repeated.

Query: I have this compound here, O=C(O[C@@H]1Cc2c(O)cc(O)cc2O[C@@H]1c1cc(O)c(O)c(O)c1)c1cc(O)c(O)c(O)c1 [EGCG, epigallocatechin gallate] , and I need its recorded EC50.
Result: 94.6
